- Study system: Sphingosine kinase 2 (Homo sapiens, UniProt Q9NRA0)
- Sequence (Q9NRA0 whole entry): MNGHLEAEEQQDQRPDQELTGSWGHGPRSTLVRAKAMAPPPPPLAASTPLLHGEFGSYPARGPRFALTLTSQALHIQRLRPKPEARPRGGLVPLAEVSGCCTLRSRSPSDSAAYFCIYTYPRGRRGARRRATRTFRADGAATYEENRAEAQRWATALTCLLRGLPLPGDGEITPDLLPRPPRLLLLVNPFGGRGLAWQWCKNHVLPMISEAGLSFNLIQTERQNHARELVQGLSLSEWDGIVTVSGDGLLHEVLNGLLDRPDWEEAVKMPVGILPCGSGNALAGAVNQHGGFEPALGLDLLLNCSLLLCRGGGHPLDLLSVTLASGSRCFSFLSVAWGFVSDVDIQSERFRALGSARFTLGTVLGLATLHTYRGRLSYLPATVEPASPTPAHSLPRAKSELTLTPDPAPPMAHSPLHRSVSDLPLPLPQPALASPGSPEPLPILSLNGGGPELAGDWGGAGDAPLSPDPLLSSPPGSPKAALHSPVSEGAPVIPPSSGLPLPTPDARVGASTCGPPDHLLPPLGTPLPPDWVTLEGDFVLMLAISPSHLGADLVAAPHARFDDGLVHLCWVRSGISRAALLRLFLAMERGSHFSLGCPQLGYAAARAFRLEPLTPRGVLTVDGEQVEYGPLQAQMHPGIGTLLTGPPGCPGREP
pKi: −log10 of the molar value.
Reported pKi against Sphingosine kinase 2 (Homo sapiens, UniProt Q9NRA0), gathered from multiple publications, appears below.

{"Molecule smiles": "Oc1ccc(Nc2nc(-c3ccc(Cl)cc3)cs2)cc1", "Lt gt eq": "=", "pKi": 5.10}
{"Molecule smiles": "CCCCc1ccc(/C=C/[C@H](O)[C@@H](CO)NC)cc1", "Lt gt eq": "<", "pKi": 4.00}
{"Molecule smiles": "CCCCCCCCc1ccc(-c2noc([C@@H]3C[C@@H](O)CN3C(=N)N)n2)cc1", "Lt gt eq": "=", "pKi": 5.28}
{"Molecule smiles": "CCCCCCCCc1ccc(-c2noc([C@@H]3CCN3C(=N)N)n2)cc1.Cl", "Lt gt eq": "=", "pKi": 5.92}
{"Molecule smiles": "CCCCCc1ccc(/C=C/[C@H](O)[C@@H](CO)NC)cc1", "Lt gt eq": "<", "pKi": 4.00}
{"Molecule smiles": "CCCCCCCCc1ccc(-c2noc([C@@H]3CCCN3C(=N)N)n2)cc1.Cl", "Lt gt eq": "=", "pKi": 5.89}
